Molecular target: human recombinant ETA receptors (Homo sapiens, UniProt P25101)
Construct: expressed in transfected cells; host or cells: CHO cells (microsomal membranes)
Sequence (P25101 21-427): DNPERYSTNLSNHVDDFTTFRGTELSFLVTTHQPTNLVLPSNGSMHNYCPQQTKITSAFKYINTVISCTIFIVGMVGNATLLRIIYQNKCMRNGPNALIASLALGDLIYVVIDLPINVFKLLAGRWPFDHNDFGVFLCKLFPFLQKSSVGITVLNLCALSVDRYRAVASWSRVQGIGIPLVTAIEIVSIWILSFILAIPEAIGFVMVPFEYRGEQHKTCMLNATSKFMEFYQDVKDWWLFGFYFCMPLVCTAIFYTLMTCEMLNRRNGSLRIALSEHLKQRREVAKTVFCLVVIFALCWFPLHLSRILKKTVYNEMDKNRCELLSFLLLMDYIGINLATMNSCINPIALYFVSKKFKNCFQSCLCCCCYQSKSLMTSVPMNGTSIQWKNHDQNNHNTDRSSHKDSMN
Assay: Inhibition of endothelin binding to membranes from CHO cells carrying human ET receptors (ETA)
Conditions: membranes of CHO cells expressing human recombinant ETA receptors, 8 pM [125I]ET-1, 2 h at 20° C.
Output Fulfilled for records whose IC50 is lower than 0.2 µM, Not fulfilled for records at or above 0.2 µM.

Previously resolved entries follow.
INSERT INTO results (compound, tgt, label_class) VALUES
  ('CCS(=O)(=O)NCCOc1nc(-c2ccncc2)nc(NS(=O)(=O)c2ccc(C)cn2)c1Oc1ccccc1OC [Example 77]', 'human recombinant ETA receptors (Homo sapiens, UniProt P25101)', 'Fulfilled'),
  ('CCCS(=O)(=O)NCCOc1nc(N2CCOCC2)nc(NS(=O)(=O)c2ccc(C(C)C)cn2)c1Oc1ccccc1OC [Example 46]', 'human recombinant ETA receptors (Homo sapiens, UniProt P25101)', 'Fulfilled'),
  ('CCS(=O)(=O)NCCCOc1nc(C2CC2)nc(NS(=O)(=O)c2ccc(C(C)(C)C)cc2)c1Oc1ccccc1OC [Example 87]', 'human recombinant ETA receptors (Homo sapiens, UniProt P25101)', 'Fulfilled');

Exercise: Please indicate whether the reported IC50 of CCS(=O)(=O)NCCOc1nc(-c2ncccn2)nc(NS(=O)(=O)c2ccc(C(C)(C)C)cc2)c1Oc1ccccc1OC [Example 8] is strictly below 0.2 µM.
Solution: Fulfilled

Exercise: Moving on to CCS(=O)(=O)NCCCOc1nc(C2CC2)nc(NS(=O)(=O)c2ccc(C(C)C)cn2)c1Oc1ccccc1OC [Example 91]
Solution: Fulfilled

Exercise: Also COc1ccccc1Oc1c(NS(=O)(=O)c2ccc(C(C)(C)C)cc2)nc(-c2ncccn2)nc1OCCNS(=O)(=O)c1ccc(C)cc1 [Example 6] ?
Solution: Not fulfilled

Exercise: Repeat for the following compound: COc1ccccc1Oc1c(NS(=O)(=O)c2ccc(C(C)C)cn2)nc(-c2cc(OC)c(OC)c(OC)c2)nc1OCCNS(=O)(=O)c1cccs1 [Example 15]
Solution: Not fulfilled

----------
Molecular target: human recombinant ETB receptors (Homo sapiens, UniProt P24530)
Construct: expressed in transfected cells; host or cells: CHO cells (microsomal membranes)
Assay: Inhibition of endothelin binding to membranes from CHO cells carrying human ET receptors (ETB)
Description: 1) Inhibition of Endothelin Binding to Membranes from CHO Cells Carrying Human ET Receptors: For competition binding studies, membranes of CHO cells expressing human recombinant ETA or ETB receptors were used. Microsomal membranes from recombinant CHO cells were prepared and the binding assay made as previously described (Breu V., et al, FEBS Lett 1993; 334:210). […]
pIC50: −log10 of the molar value.
Quick rule: pIC50 of at least 6 means t, below that means f.

Use the examples below as a reference point.
INSERT INTO assay_data (compound_string, label_class) VALUES
  ('CCS(=O)(=O)NCCCOc1nc(C2CC2)nc(NS(=O)(=O)c2ccc(C(C)(C)C)cc2)c1Oc1ccccc1OC', 'f'),
  ('CCCS(=O)(=O)NCCOc1nc(N2CCOCC2)nc(NS(=O)(=O)c2ccc(C)cn2)c1Oc1ccccc1OC', 't');

Exercise: Could you tell me if the measured pIC50 of COc1ccccc1Oc1c(NS(=O)(=O)c2ccc(C(C)C)cn2)nc(-c2ccncc2)nc1OCCNS(=O)(=O)C(C)C reaches 6 or more?
Solution: t

Exercise: Next compound: COc1ccccc1Oc1c(NS(=O)(=O)c2ccc(C)cn2)nc(-c2ccncc2)nc1OCCNS(C)(=O)=O
Solution: f

Exercise: Repeat with COc1ccccc1Oc1c(NS(=O)(=O)c2ccc(C(C)C)cn2)nc(C)nc1OCCNS(=O)(=O)c1ccc(C)cc1
Solution: t

Exercise: Next: COc1ccccc1Oc1c(NS(=O)(=O)c2ccc(C(C)C)cn2)nc(-c2cc(OC)c(OC)c(OC)c2)nc1OCCNS(=O)(=O)c1cccs1
Solution: t

----------
Biological target: human recombinant ETB receptors (Homo sapiens, UniProt P24530)
Construct: expressed in transfected cells; host or cells: CHO cells (microsomal membranes)
Sequence (P24530 27-442): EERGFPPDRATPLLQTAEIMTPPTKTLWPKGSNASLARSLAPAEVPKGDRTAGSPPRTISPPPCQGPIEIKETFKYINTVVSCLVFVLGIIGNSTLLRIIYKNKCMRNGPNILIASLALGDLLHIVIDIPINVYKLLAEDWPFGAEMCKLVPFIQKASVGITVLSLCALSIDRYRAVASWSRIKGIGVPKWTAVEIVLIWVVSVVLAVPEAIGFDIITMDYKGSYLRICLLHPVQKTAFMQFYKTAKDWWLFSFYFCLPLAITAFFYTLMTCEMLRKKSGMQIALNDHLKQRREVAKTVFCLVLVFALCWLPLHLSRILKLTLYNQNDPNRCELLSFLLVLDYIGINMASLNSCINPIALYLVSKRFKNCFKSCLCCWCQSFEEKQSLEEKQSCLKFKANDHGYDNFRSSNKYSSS
Assay: Inhibition of endothelin binding to membranes from CHO cells carrying human ET receptors (ETB)
MEASURED_PROPERTY: IC50 (nM)
# value in nM; strip the unit string

Below: 5 compounds and their reported IC50.
INSERT INTO results (compound, measured_property, recorded_result) VALUES
  ('CCS(=O)(=O)NCCOc1ncnc(NS(=O)(=O)c2ccc(C(C)(C)C)cc2)c1Oc1ccccc1OC', 'IC50', 735),
  ('COc1ccccc1Oc1c(NS(=O)(=O)c2ccc(C(C)(C)C)cc2)nc(-c2ncccn2)nc1OCCNS(=O)(=O)c1cccs1', 'IC50', 15.8),
  ('COc1ccccc1Oc1c(NS(=O)(=O)c2ccc(C(C)C)cn2)nc(C2CC2)nc1OCCCNS(=O)(=O)c1ccc(C)cc1', 'IC50', 18.6),
  ('COc1ccccc1Oc1c(NS(=O)(=O)c2ccc(C(C)C)cn2)nc(-c2ncccn2)nc1OCCNS(=O)(=O)c1cccs1', 'IC50', 169),
  ('COc1ccccc1Oc1c(NS(=O)(=O)c2ccc(C(C)C)cn2)nc(-c2cc(OC)c(OC)c(OC)c2)nc1OCCNS(=O)(=O)c1ccc(C)cc1', 'IC50', 4.3);

Exercise: // query IC50 value for entry COc1ccccc1Oc1c(NS(=O)(=O)c2ccc(C(C)(C)C)cc2)nc(C)nc1OCCNS(=O)(=O)c1cccs1
Solution: 163

Exercise: Next record, please: COc1ccccc1Oc1c(NS(=O)(=O)c2ccc(C(C)(C)C)cc2)ncnc1OCCNS(=O)(=O)c1cccs1
Solution: 235

Exercise: Same question, COc1ccccc1Oc1c(NS(=O)(=O)c2ccc(C(C)C)cn2)nc(-c2ccncc2)nc1OCCNS(=O)(=O)c1cccs1 this time
Solution: 231

Exercise: Next record, please: COc1ccccc1Oc1c(NS(=O)(=O)c2ccc(C(C)(C)C)cc2)nc(-c2ncccn2)nc1OCCCNS(=O)(=O)c1cccs1
Solution: 4.1

Exercise: Now consider COc1ccccc1Oc1c(NS(=O)(=O)c2ccc(C(C)C)cn2)nc(-c2ccncc2)nc1OCCNS(C)(=O)=O and answer again.
Solution: 451

Exercise: Try COc1ccccc1Oc1c(NS(=O)(=O)c2ccc(C(C)C)cn2)nc(C)nc1OCCNS(C)(=O)=O next.
Solution: 52.7

Exercise: Next compound up: COc1ccccc1Oc1c(NS(=O)(=O)c2ccc(C(C)C)cn2)nc(-c2ccncc2)nc1OCCNS(=O)(=O)c1ccc(C)cc1
Solution: 73.3

Exercise: Also, CCS(=O)(=O)NCCOc1nc(S(C)(=O)=O)nc(NS(=O)(=O)c2ccc(C(C)(C)C)cc2)c1Oc1ccccc1OC [Example 36g] please.
Solution: 93

Exercise: CCS(=O)(=O)NCCOc1nc(N2CCOCC2)nc(NS(=O)(=O)c2ccc(C(C)C)cn2)c1Oc1ccccc1OC ?
Solution: 183

----------
Biological target: human recombinant ETA receptors (Homo sapiens)
Construct: expressed in transfected cells; host or cells: CHO cells (microsomal membranes)
Assay: Inhibition of endothelin binding to membranes from CHO cells carrying human ET receptors (ETA)
Conditions: membranes of CHO cells expressing human recombinant ETA receptors, 8 pM [125I]ET-1, 2 h at 20° C.
MEASURED_PROPERTY: IC50 (nM)
Please reply with the bare figure in nM and do not write the unit itself.

INSERT INTO results (compound, unit_name, recorded_result) VALUES
  ('COc1ccccc1Oc1c(NS(=O)(=O)c2ccc(C(C)C)cn2)nc(-c2cc(OC)c(OC)c(OC)c2)nc1OCCNS(=O)(=O)c1ccc(C)cc1 [Example 11]', 'nM', 5110),
  ('COc1ccccc1Oc1c(NS(=O)(=O)c2ccc(C(C)C)cn2)nc(C2CC2)nc1OCCCNS(=O)(=O)c1ccc(C)cc1 [Example 94]', 'nM', 77.3),
  ('COc1ccccc1Oc1c(NS(=O)(=O)c2ccc(C(C)C)cn2)nc(C2CC2)nc1OCCCNS(=O)(=O)c1cccs1 [Example 93]', 'nM', 22.2);

--- query ---
Exercise: Which IC50 value belongs to CCCS(=O)(=O)NCCCOc1nc(C2CC2)nc(NS(=O)(=O)c2ccc(C(C)C)cn2)c1Oc1ccccc1OC [Example 92] ?
Solution: 82.1
